Biological target: T1, human TNFR2 (human, UniProt P20333 23-461)
T1 construct: expressed on the surface of CHO cells; also called HuTNFR2; TNFRSF1B
T1 sequence: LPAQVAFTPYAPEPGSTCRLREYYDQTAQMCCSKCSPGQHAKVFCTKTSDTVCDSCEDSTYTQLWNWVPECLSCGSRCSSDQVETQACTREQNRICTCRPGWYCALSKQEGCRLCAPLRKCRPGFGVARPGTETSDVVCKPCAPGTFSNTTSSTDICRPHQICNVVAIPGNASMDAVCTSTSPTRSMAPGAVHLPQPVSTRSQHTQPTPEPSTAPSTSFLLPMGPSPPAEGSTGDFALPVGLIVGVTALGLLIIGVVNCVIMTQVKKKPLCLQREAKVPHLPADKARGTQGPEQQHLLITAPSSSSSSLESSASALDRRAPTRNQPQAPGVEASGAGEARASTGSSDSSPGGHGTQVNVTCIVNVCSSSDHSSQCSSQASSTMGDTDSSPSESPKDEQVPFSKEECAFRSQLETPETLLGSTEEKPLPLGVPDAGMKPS
Assay: binding to human TNFR2 CHO cells
Measured Quantity: binding result

IgG 1925 (antibody, name in Kabat numbering, V domains shown, IgG) VH: QVQLVQSGAEVKKPGASVKVSCKVSGFSFPSSGVDWVRQAPGQGLEWLGVTWGVGSTHYNQKFQGRVTITKDTSKSTVYMELSSLRSEDTAVYYCASGEQDEGFVYWGQGTLVTVSS VL: DIQLTQSPSFLSASVGDRVTITCKASQNVGTAVAWYQQKPGKAPKLLIYAASTLQSGVPSRFSGSGSGTEFTLTISSLQPEDFATYYCQQYNSYPFGGGTKVEIKR    no binding
IgG 2030 (antibody, name in Kabat numbering, V domains shown, IgG) VH: QVQLVQSGAEVKKPGASVKVSCKVSGFSFPSSGVDWVRQAPGQGLEWLGVTHGSGSTHYNQKFQGRVTITKDTSKSTVYMELSSLRSEDTAVYYCASGEHDEGFVYWGQGTLVTVSS VL: DIQLTQSPSFLSASVGDRVTITCKASQNVGTAVAWYQQKPGKAPKLLIYAASTLQSGVPSRFSGSGSGTEFTLTISSLQPEDFATYYCLQKSSYPLTFGGGTKVEIKR    no binding
IgG 1938 (antibody, name in Kabat numbering, V domains shown, IgG) VH: QVQLVQSGAEVKKPGASVKVSCKVSGFSFPSSGVDWVRQAPGQGLEWLGVTLGHGSTHYNQKFQGRVTITKDTSKSTVYMELSSLRSEDTAVYYCASGEWDEGFVYWGQGTLVTVSS VL: DIQLTQSPSFLSASVGDRVTITCKASQNVGTAVAWYQQKPGKAPKLLIYAASTLQSGVPSRFSGSGSGTEFTLTISSLQPEDFATYYCLQKSSYPLTFGGGTKVEIKR    no binding
